# measurement_protocol: Drug uptake in PrCP knockout mouse brain at 30 mg/kg, po qd for 5 days measured on day 6
# Type: ADME, organism-based
# Set-up: dose 30 mg/kg, route oral
# assay_setup: read-out: Drug uptake
experimental_readout: concentration at 120 h (nM)

>  <compound>
FC(F)(F)Oc1ccc(CN2CCC3(CC2)OC(c2cc(Cl)ccn2)c2ccccc23)cc1 (stereo unspecified)

>  <unit_symbol>
nM

>  <quantitative_result>
820

$$$$

---

# measurement_protocol: Drug uptake in established diet-induced obese C57BL/6 mouse brain at 10 mg/kg, po qd for 2 days
# Type: ADME, organism-based
# Design: dose 10 mg/kg, route oral
# assay_setup: read-out: Drug uptake

>  <compound>
FC(F)(F)Oc1ccc(CN2CCC3(CC2)OC(c2cc(Cl)ccn2)c2ccccc23)cc1 (stereo unspecified)

>  <concentration at 48 h>
110 nM

$$$$

---

Catalogue of log10 of clearance readings, one per entry.
# measurement_protocol: Clearance in C57BL/6 mouse at 0.5 mg/kg, iv and 1 mg/kg, po by LC/MS/MS analysis
# Assay type: ADME, organism-based
# assay_setup: in vivo
experimental_readout: log10 of clearance (log10 of the value in mL/min/kg)

>  <molecule>
FC(F)(F)c1ccc(CN2CCC3(CC2)OC(c2cc(Cl)cc(Cl)c2)c2ccccc23)nc1 (racemic)

>  <quantitative_result>
1.71

$$$$
>  <molecule>
FC(F)(F)Oc1ccc(CN2CCC3(CC2)OC(c2cc(Cl)cc(Cl)c2)c2cccnc23)cc1 (stereo unspecified)

>  <quantitative_result>
1.45

$$$$
>  <molecule>
O=S(=O)(c1ccc(OC(F)(F)F)cc1)N1CCC2(CC1)OC(c1cc(Cl)cc(Cl)c1)c1cccnc12 (racemic)

>  <quantitative_result>
1.52

$$$$
>  <molecule>
Clc1cc(Cl)cc(C2OC3(CCN(Cc4ccc(N5CCCC5)cn4)CC3)c3ccccc32)c1 (racemic)

>  <quantitative_result>
0.88

$$$$
>  <molecule>
FC(F)(F)Oc1ccc(CN2CCC3(CC2)OC(c2ccc(Cl)cn2)c2ccccc23)cc1 (racemic)

>  <quantitative_result>
1.48

$$$$
>  <molecule>
O=S(=O)(c1ccc(C(F)(F)F)cn1)N1CCC2(CC1)OC(c1cc(Cl)cc[n+]1[O-])c1ccccc12 (racemic)

>  <quantitative_result>
1.94

$$$$
>  <molecule>
CC(c1ccc(F)cn1)N1CCC2(CC1)OC(c1cc(Cl)ccn1)c1ccccc12 (racemic)

>  <quantitative_result>
1.98

$$$$
>  <molecule>
CC(c1ccc(F)cn1)N1CCC2(CC1)OC(c1cc(Cl)cc(Cl)c1)c1cccnc12 (stereo unspecified)

>  <quantitative_result>
1.84

$$$$
>  <molecule>
CC(C)(O)C(c1ccccc1)N1CCC2(CC1)OC(c1cc(Cl)cc(Cl)c1)c1cccnc12 (racemic)

>  <quantitative_result>
1.58

$$$$
>  <molecule>
FC(F)(F)Oc1ccc(CN2CCC3(CC2)OC(c2ccccn2)c2ccccc23)cc1 (racemic)

>  <quantitative_result>
1.85

$$$$
>  <molecule>
Fc1ccc(CN2CCC3(CC2)OC(c2cc(Cl)cc(Cl)c2)c2ccccc23)nc1 (stereo unspecified)

>  <quantitative_result>
1.45

$$$$

---

# Test system: Mus musculus
# measurement_protocol: Dose normalized AUC in C57BL/6 mouse at 1 mg/kg by LC/MS/MS analysis
# Format: ADME, organism-based
# Set-up: dose 1 mg/kg
# assay_setup: in vivo
experimental_readout: AUC/dose (µM·kg·h/mg)

>  <molecule>
Fc1ccc(CN2CCC3(CC2)OC(c2cc(Cl)cc(Cl)c2)c2ccccc23)nc1 (stereo not drawn)

>  <quantitative_result>
1.36

$$$$
>  <molecule>
CC(C)(c1ccc(OC(F)(F)F)cc1)N1CCC2(CC1)OC(c1cc(Cl)ccn1)c1cccnc12 (racemic)

>  <quantitative_result>
0.41

$$$$
>  <molecule>
Clc1cc(Cl)cc(C2OC3(CCN(Cc4ccc(N5CCCC5)cn4)CC3)c3ccccc32)c1 (racemic)

>  <quantitative_result>
1.22

$$$$
>  <molecule>
CC(C)(O)C(c1ccccc1)N1CCC2(CC1)OC(c1cc(Cl)cc(Cl)c1)c1cccnc12 (racemic)

>  <quantitative_result>
0.11

$$$$
>  <molecule>
CC(c1ccc(F)cn1)N1CCC2(CC1)OC(c1cc(Cl)cc(Cl)c1)c1ccccc12 (racemic)

>  <quantitative_result>
0.27

$$$$
>  <molecule>
CC(c1ccc(F)cn1)N1CCC2(CC1)OC(c1cc(Cl)ccn1)c1cccnc12 (racemic)

>  <quantitative_result>
0.008

$$$$
>  <molecule>
FC(F)(F)Oc1ccc(CN2CCC3(CC2)OC(c2cc(Cl)cc(Cl)c2)c2ccncc23)cc1 (racemic)

>  <quantitative_result>
0.28

$$$$
>  <molecule>
FC(F)(F)c1ccc(CN2CCC3(CC2)OC(c2cc(Cl)cc(Cl)c2)c2ccccc23)nc1 (racemic)

>  <quantitative_result>
0.11

$$$$
